Exercise: state measured normalized growth for each of the compounds provided.
EXPERIMENT: chemical genetic growth profiling, strain panel (AID 1159580);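 note: tested at 20 µM; growth read once vehicle control cultures reached saturation at 30 °C; 1 = growth at the plate median or of vehicle wells; lower values mean less growth of the strain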
MEASUREMENT_CONDITIONS: S. cerevisiae deletion strains, growth OD, locus YAR019C, strain CDC15, hits give low values
Hit rate of the full screen: of about 5,500 compounds, about 2,000 (36%) were called active. Roughly 18% stayed inconclusive and do not appear here. The list shows a part of the results.
Returns: the value as a bare number; no unit string appended.

Exercise: Please list normalized growth recorded for the compound COc1ccccc1N1CCN(C(=O)C(C)c2ccc(CC(C)C)cc2)CC1 (stereo unspecified)
Solution: 0.978

Exercise: Retrieve normalized growth measured for `FC(F)(F)Sc1ccc(OCc2n[nH]c(=S)n2-c2ccccc2)cc1` and print it.
Solution: 0.989

Exercise: For the compound `FC(F)(F)Oc1ccc(OCc2n[nH]c(=S)n2-c2ccc(Cl)cc2)cc1` , report normalized growth.
Solution: 0.984

Exercise: Find the measured normalized growth of `C/C(=N/NC(N)=S)c1csc(-c2ccccc2)n1` and report it.
Solution: 0.917

Exercise: Look up normalized growth of `O=C(Nc1ccccc1C(=O)O)OCC1c2ccccc2-c2ccccc21` and report it.
Solution: 0.993

Exercise: Using known records, supply normalized growth for `CC(C)(C)NC(=S)N/N=C\c1cc(Br)c(O)c(Br)c1`
Solution: 0.966

====

EXPERIMENT: chemical genetic growth profiling, strain panel (AID 1159580)
MEASUREMENT_CONDITIONS: S. cerevisiae deletion strains, growth OD, locus YLL026W, hits give low values
About 2,000 (36%) of roughly 5,500 compounds were called active. Another 18% or so got no clear call; they are omitted. This is one part of the list.
MEASUREMENT_TYPE: normalized growth

Exercise: Tell me its normalized growth given CCC(=O)OCC(=O)[C@@]1(OC(=O)CC)[C@@H](C)CC2C3CCC4=CC(=O)C=C[C@]4(C)C3(F)[C@@H](O)C[C@@]21C (some centres undefined) as the entry.
Solution: 1.01 (inactive)

Exercise: Return value of normalized growth for input CCC(=O)OCC(=O)C1(OC(=O)CC)C(C)CC2C3CCC4=CC(=O)C=CC4(C)C3(Cl)C(O)CC21C (centres undefined) , no commentary.
Solution: 0.989 (inactive)

Exercise: Annotate the compound CCCCC(=O)O[C@]1(C(=O)CO)[C@@H](C)CC2C3CCC4=CC(=O)C=C[C@]4(C)[C@@]3(F)C(O)C[C@@]21C (some centres undefined) with its measured normalized growth.
Solution: 0.964 (inactive)

Exercise: Answer with reported normalized growth of CCC(=O)OCC(=O)C1(OC(=O)CC)C(C)CC2C3C(Cl)CC4=CC(=O)C=CC4(C)C3C(O)CC21C (centres undefined)
Solution: 1.04 (inactive)

====

EXPERIMENT: chemical genetic growth profiling, strain panel (AID 1159580);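 note: tested at 20 µM; growth read once vehicle control cultures reached saturation at 30 °C; 1 = growth at the plate median or of vehicle wells; lower values mean less growth of the strain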
MEASUREMENT_CONDITIONS: S. cerevisiae deletion strains, growth OD, locus YKR091W, strain srl3, hits give low values
Hit rate of the full screen: of about 5,500 compounds, about 2,000 (36%) were called active. Roughly 18% stayed inconclusive and do not appear here. The list shows a part of the results.
Can you tell me normalized growth for the items I'm about to list?

Exercise: Return the recorded normalized growth value; entry: CCC(=O)OCC(=O)C1(OC(=O)CC)C(C)CC2C3C(Cl)CC4=CC(=O)C=CC4(C)C3C(O)CC21C (centres undefined)
Solution: 1.03 (inactive)

Exercise: Output normalized growth of `Cc1ccc(-c2nc3ccc(C)cn3c2CC(=O)N(C)C)cc1`
Solution: 1.03 (inactive)

Exercise: Given the molecule CCCCC(=O)O[C@]1(C(=O)CO)[C@@H](C)CC2C3CCC4=CC(=O)C=C[C@]4(C)[C@@]3(F)C(O)C[C@@]21C (some centres undefined) , write its reported normalized growth.
Solution: 0.986 (inactive)

Exercise: State its normalized growth: NC[C@H]1O[C@H](OC2[C@@H](N)C[C@@H](N)[C@H](O[C@H]3O[C@H](CO)[C@@H](O)[C@H](N)[C@H]3O)[C@H]2O)[C@H](O)[C@@H](O)[C@@H]1O (some centres undefined)
Solution: 1.01 (inactive)

Exercise: Return reported normalized growth. Input molecule: `C[N+]1(C)C[C@H](O)[C@H](C(=O)[O-])C1`
Solution: 1.01 (inactive)

Exercise: Report normalized growth for CC12CCC(=O)C=C1CCc1ccccc12 (centres undefined)
Solution: 0.971 (inactive)

Exercise: Given the molecule `Nc1nc(/C(=C/CC(=O)O)C(=O)N[C@@H]2C(=O)N3C(C(=O)O)=CCS[C@H]23)cs1` , write its reported normalized growth.
Solution: 1.01 (inactive)

Exercise: Kindly indicate its recorded normalized growth. Item: CC(C)(C)NCC(O)COc1cccc2c1CCCC2=O (centres undefined)
Solution: 0.986 (inactive)

Exercise: Look up and state reported normalized growth for CCC(=O)OCC(=O)[C@@]1(OC(=O)CC)[C@@H](C)CC2C3CCC4=CC(=O)C=C[C@]4(C)C3(F)[C@@H](O)C[C@@]21C (some centres undefined)
Solution: 0.997 (inactive)

====

Hi there, I'd appreciate the recorded normalized growth for every entry that follows.
EXPERIMENT: chemical genetic growth profiling, strain panel (AID 1159580);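 note: tested at 20 µM; growth read once vehicle control cultures reached saturation at 30 °C; 1 = growth at the plate median or of vehicle wells; lower values mean less growth of the strain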
MEASUREMENT_CONDITIONS: S. cerevisiae deletion strains, growth OD, locus YGL167C, strain pmr1, hits give low values
Hit rate of the full screen: of about 5,500 compounds, about 2,000 (36%) were called active. Not shown: some 18% with an inconclusive outcome. This is one part of the list.
The reply should be a number, written without any unit.

Exercise: Consider the molecule `O=C1CC2(CCCC2)CC(=O)N1CCCCN1CCN(c2ncccn2)CC1` and give its recorded normalized growth.
Solution: 0.991

Exercise: Output measured normalized growth for this item: `O=C(Oc1cccc2cccnc12)c1ccccc1`
Solution: 0.927

Exercise: Complete the entry with normalized growth for `CC(C)Nc1nc(Cl)nc(NC(C)C)n1`
Solution: 0.998

Exercise: Using known records, supply normalized growth for CC(=O)N1CCN(c2ccc(OCC3CO[C@](Cn4ccnc4)(c4ccc(Cl)cc4Cl)O3)cc2)CC1 (some centres not stated)
Solution: 0.191

Exercise: For the molecule `CC(C)c1cccc(O)c(=O)c1` , give its measured normalized growth value.
Solution: 0.091

Exercise: Given `CCCc1nc(C)c2c(=O)[nH]c(-c3cc(S(=O)(=O)N4CCN(CC)CC4)ccc3OCC)nn12` , respond with its normalized growth.
Solution: 0.957

Exercise: Read off the recorded normalized growth for `Oc1ccc([C@H]2Oc3cc(O)cc(O)c3C[C@H]2O)cc1`
Solution: 0.986

Exercise: Complete the entry with normalized growth for `COC1=CC(=O)C=C(OC)C1=O`
Solution: 0.987

Exercise: Please report the measured normalized growth for CC(=O)OCC(=O)[C@@]1(O)CCC2C3C[C@H](C)C4=CC(=O)C=CC4(C)C3[C@@H](O)CC21C (some centres not stated)
Solution: 1.02

Exercise: Identify normalized growth associated with the molecule `CC(=O)Oc1ccccc1C(=O)Oc1ccccc1C(=O)O`
Solution: 0.996

Exercise: Input `O=C(Oc1ccccc1C(=O)O)c1ccccc1O` , output reported normalized growth.
Solution: 0.937

Exercise: Please report the measured normalized growth for `COc1nc(NC(C)C)nc(NC(C)C)n1`
Solution: 1.02

====

EXPERIMENT: chemical genetic growth profiling, strain panel (AID 1159580);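 note: tested at 20 µM; growth read once vehicle control cultures reached saturation at 30 °C; 1 = growth at the plate median or of vehicle wells; lower values mean less growth of the strain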
MEASUREMENT_CONDITIONS: S. cerevisiae deletion strains, growth OD, locus YGL253W, strain hxk2, hits give low values
In all, about 5,500 compounds went through this assay and about 2,000 (36%) were called active. Another 18% or so got no clear call; they are omitted. The list shows a part of the results.
MEASUREMENT_TYPE: normalized growth
Returns: the value as a bare number; no unit string appended.

Exercise: For the compound COC(=O)CC1C(C)(C)C(OC(C)=O)[C@@H]2[C@@H](OC(C)=O)[C@]34O[C@@]2(O)[C@]1(C)C3CC[C@]1(C)C4=CC(=O)O[C@H]1c1ccoc1 (stereo partly specified) , give its measured normalized growth value.
Solution: 0.953

Exercise: Fill in normalized growth for record `C=CCSC[C@@H](N)C(=O)O`
Solution: 0.993

Exercise: Specify reported normalized growth for the compound shown: NS(=O)(=O)c1cc2c(cc1C(F)(F)F)NC(Cc1ccccc1)NS2(=O)=O (stereo unspecified)
Solution: 0.998

Exercise: Provide only the value of recorded normalized growth for `C=CCSSSCC=C`
Solution: 0.987

Exercise: Item COP(N)(=O)SC (stereo unspecified) : provide normalized growth
Solution: 0.997

Exercise: Given CC1Cc2ccccc2N1NC(=O)c1ccc(Cl)c(S(N)(=O)=O)c1 (stereo unspecified) , respond with its normalized growth.
Solution: 0.993

Exercise: For the compound `C[N+]1(C)C[C@H](O)[C@H](C(=O)[O-])C1` , report normalized growth.
Solution: 1.03

Exercise: Please supply the value of reported normalized growth for the item `Cc1cc(N)c2ccccc2[n+]1CCCCCCCCCC[n+]1c(C)cc(N)c2ccccc21`
Solution: 0.0575

Exercise: Give reported normalized growth value for `C=CCSSCC=C`
Solution: 1.04

Exercise: Report measured normalized growth; entry is `C=CCSCC=C`
Solution: 0.967

Exercise: Give normalized growth for `CO[C@@H]1[C@@H](OC(N)=O)[C@@H](O)[C@H](Oc2ccc3c(O)c(NC(=O)c4ccc(O)c(CC=C(C)C)c4)c(=O)oc3c2C)OC1(C)C`
Solution: 1

These data points were gathered from PubChem BioAssay AID1159580.
